This section presents binders with their documented kon values.
Target: T1, PD-L1 Protein, Cynomolgus, Recombinant (His Tag) (cynomolgus)
T1 construct: Bought protein; also called QPP10.1; SinoBiologic 90251-C08H
Assay: SPR Biacore T200, antibody captured, PD-L1 His as analyte, 1:1 binding

BINDER: QP325 (Fc fusion, Humanization design of QP1166; VHH-Fc; also called 1166-V3; QD325; not shown: human IgG1-FC constant region fused to the C terminal of the VHH) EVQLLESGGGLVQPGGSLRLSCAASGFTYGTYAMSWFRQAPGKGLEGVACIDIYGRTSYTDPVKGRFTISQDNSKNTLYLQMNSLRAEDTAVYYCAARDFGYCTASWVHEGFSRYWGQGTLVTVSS
kon [M⁻¹ s⁻¹]: 212000
//
BINDER: QP322 (Fc fusion, Humanization design of QP1162; VHH at the N-terminal of FC; also called 1162-V3; QD322; not shown: human IgG1-FC constant region fused to the C terminal of the VHH) EVQLLESGGGLVQPGGSLRLSCAASGFTYGTYAMSWFRQAPGKGREGVACIDIYGRASYTDPVKGRFTISQDNSKNTLYLQMNSLKAEDTAVYYCAARDFGYCTASWVHEGFSRYWGQGTLVTVSS
kon [M⁻¹ s⁻¹]: 657000
//
BINDER: QP1162 (Fc fusion, Chimeric antibody before humanization; also called QD1162; nanobody QP1162; not shown: Fc part: called chimeric antibody, cloned in vector VH-FC-pQD) QVQLVESGGGSVQSGGSLRLSCAASGFTYGTYAMSWFRQAPGKEREGVACIDIYGRASYTDPVKGRFTISQDNAKNTLYLQMNSLKPEDTAMYYCAARDFGYCTASWVHEGFSRYWGQGTQVTVSS
kon [M⁻¹ s⁻¹]: 715000
//
BINDER: QP1166 (Fc fusion, Chimeric antibody before humanization; also called QD1166; nanobody QP1166; not shown: Fc part: called chimeric antibody, cloned in vector VH-FC-pQD) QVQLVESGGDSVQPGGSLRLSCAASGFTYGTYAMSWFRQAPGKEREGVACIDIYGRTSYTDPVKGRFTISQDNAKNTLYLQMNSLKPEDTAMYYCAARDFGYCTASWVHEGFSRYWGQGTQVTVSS
kon [M⁻¹ s⁻¹]: 475000

This collection of values is drawn from patent US20230183352A1.
